Assay: Metabolite profiling and pharmacokinetics in plasma (targeted HPLC-MS2)
Type: in vivo, humans
Details: male; human plasma, oral 60 mg 14C-EC, mean ± SEM n=8; read-out: Tmax
metricName: Tmax (h)

compound="O=S(=O)(O)Oc1cc([C@H]2Oc3cc(O)cc(O)c3C[C@H]2O)ccc1O [(−)-Epicatechin-3′-sulfate, (−)-epicatechin-3′-sulfate]" metricname=Tmax experimentalresult=1.1
compound="O=C1CCC(Cc2ccc(O)c(OS(=O)(=O)O)c2)O1 (centres unmarked)" metricname=Tmax experimentalresult=6.4
compound="COc1cc([C@H]2Oc3cc(O)cc(OS(=O)(=O)O)c3C[C@H]2O)ccc1O [3′-O-Methyl-(−)-epicatechin-5-sulfate, 3′-O-methyl-(−)-epicatechin-5-sulfate]" metricname=Tmax experimentalresult=0.9
compound="O=C(O)[C@H]1O[C@@H](Oc2cc([C@H]3Oc4cc(O)cc(O)c4C[C@H]3O)ccc2O)[C@H](O)[C@@H](O)[C@@H]1O [(−)-Epicatechin-3′-O-glucuronide, (−)-epicatechin-3′-O-β-D-glucuronide]" metricname=Tmax experimentalresult=0.8
compound="O=C1CCC(Cc2ccc(O)c(O[C@@H]3O[C@H](C(=O)O)[C@@H](O)[C@H](O)[C@H]3O)c2)O1 (some centres unmarked)" metricname=Tmax experimentalresult=6.8

====

Test: Metabolite profiling and pharmacokinetics in plasma (targeted HPLC-MS2)
Type: in vivo, humans
Settings: human plasma, oral 60 mg 14C-EC, mean ± SEM n=8
metricName: Cmax

compound="O=C(O)[C@H]1O[C@@H](Oc2cc(O)c3c(c2)O[C@H](c2ccc(O)c(O)c2)[C@H](O)C3)[C@H](O)[C@@H](O)[C@@H]1O [(−)-Epicatechin-7-O-glucuronide, (−)-epicatechin-7-O-β-D-glucuronide]" experimentalresult="22 nM"
compound="O=C(O)CCC(O)Cc1ccc(O[C@@H]2O[C@H](C(=O)O)[C@@H](O)[C@H](O)[C@H]2O)c(O)c1 (some centres unmarked)" experimentalresult="54 nM"
compound="COc1cc([C@H]2Oc3cc(O)cc(O)c3C[C@H]2O)ccc1OS(=O)(=O)O [3′-O-Methyl-(−)-epicatechin-4′-sulfate]" experimentalresult="53 nM"
compound="COc1ccc([C@H]2Oc3cc(OS(=O)(=O)O)cc(O)c3C[C@H]2O)cc1O [4′-O-Methyl-(−)-epicatechin-7-sulfate]" experimentalresult="33 nM"
compound=COc1cc([C@H]2Oc3cc(O[C@@H]4O[C@H](C(=O)O)[C@@H](O)[C@H](O)[C@H]4O)cc(O)c3C[C@H]2O)ccc1O experimentalresult="39 nM"

====

Experiment: Metabolite profiling and pharmacokinetics in plasma (targeted HPLC-MS2)
Format: in vivo, humans
Details: human plasma, oral 60 mg 14C-EC, mean ± SEM n=8
Parameter Tmax: see the listing below.
metricName: Tmax (h)

molecule="O=S(=O)(O)Oc1cc(O)cc2c1C[C@@H](O)[C@@H](c1ccc(O)c(O)c1)O2 [(−)-Epicatechin-5-sulfate]" experimentalresult=0.8
molecule="O=C(O)CCC(O)Cc1ccc(O[C@@H]2O[C@H](C(=O)O)[C@@H](O)[C@H](O)[C@H]2O)c(O)c1 (stereo partly shown)" experimentalresult=4.9
molecule="O=C(O)[C@H]1O[C@@H](Oc2cc(O)c3c(c2)O[C@H](c2ccc(O)c(O)c2)[C@H](O)C3)[C@H](O)[C@@H](O)[C@@H]1O [(−)-Epicatechin-7-O-glucuronide, (−)-epicatechin-7-O-β-D-glucuronide]" experimentalresult=0.8
molecule="O=C1CCC(Cc2ccc(O[C@@H]3O[C@H](C(=O)O)[C@@H](O)[C@H](O)[C@H]3O)c(O)c2)O1 (stereo partly shown)" experimentalresult=6.1
molecule="COc1ccc([C@H]2Oc3cc(OS(=O)(=O)O)cc(O)c3C[C@H]2O)cc1O [4′-O-Methyl-(−)-epicatechin-7-sulfate]" experimentalresult=1.4
molecule="COc1cc([C@H]2Oc3cc(O)cc(O)c3C[C@H]2O)ccc1OS(=O)(=O)O [3′-O-Methyl-(−)-epicatechin-4′-sulfate]" experimentalresult=0.9
molecule="COc1cc([C@H]2Oc3cc(OS(=O)(=O)O)cc(O)c3C[C@H]2O)ccc1O [3′-O-Methyl-(−)-epicatechin-7-sulfate, 3′-O-methyl-(−)-epicatechin-7-sulfate]" experimentalresult=1.1

====

Assay: Metabolite profiling and quantification in urine (HPLC-MS2 with on-line radioactivity detector)
Type: in vivo, humans
Conditions: human, oral 207 μmol 14C-EC, mean ± SEM n=8; – = not detected
metricName: Metabolite present in urine, collection period 12–24 h

compound="O=C1CCC(Cc2cccc(OS(=O)(=O)O)c2)O1 (stereo not shown) [5-(Phenyl)-γ-valerolactone-3′-sulfate]" experimentalresult="1.0 ± 0.8 μ mol"
compound="O=C1CCC(Cc2ccc(O)c(OS(=O)(=O)O)c2)O1 (stereo not shown)" experimentalresult="8.1 ± 2.9 μ mol"
compound="COc1cc([C@H]2Oc3cc(O)cc(OS(=O)(=O)O)c3C[C@H]2O)ccc1O [3′-O-Methyl-(−)-epicatechin-5-sulfate, 3′-O-methyl-(−)-epicatechin-5-sulfate]" experimentalresult="0.3 ± 0.2 μ mol"
compound=O=C(O)CNC(=O)c1ccccc1 experimentalresult="7.1 ± 2.1 μ mol"

====

Test: Metabolite profiling and pharmacokinetics in plasma (targeted HPLC-MS2)
Format: in vivo, humans
Conditions: human plasma, oral 60 mg 14C-EC, mean ± SEM n=8
From the text: The study was a single-center, open-label, and non-randomized study with two distinct elements: a run-in phase to establish a more defined dietary background of dietary flavanols and procyanidins and the subsequent ^14C-EC ADME study (Fig. 1B). […] All urine and feces from the time just prior to the consumption of the test drink were collected at different time intervals for radioactivity and metabolite profiling. […] Data are expressed as mean values ± standard error, or as otherwise specified. […]
Note to self: AUC0-24h under 0.1 µM·h means Condition met, ties and anything higher get Condition not met.

molecule="O=S(=O)(O)Oc1cc(O)cc2c1C[C@@H](O)[C@@H](c1ccc(O)c(O)c1)O2 [(−)-Epicatechin-5-sulfate]" categorylabel="Condition met"
molecule=COc1cc([C@H]2Oc3cc(O[C@@H]4O[C@H](C(=O)O)[C@@H](O)[C@H](O)[C@H]4O)cc(O)c3C[C@H]2O)ccc1O categorylabel="Condition met"
molecule="O=C1CCC(Cc2ccc(O[C@@H]3O[C@H](C(=O)O)[C@@H](O)[C@H](O)[C@H]3O)c(O)c2)O1 (stereo partly shown)" categorylabel="Condition not met"
molecule="COc1cc([C@H]2Oc3cc(OS(=O)(=O)O)cc(O)c3C[C@H]2O)ccc1O [3′-O-Methyl-(−)-epicatechin-7-sulfate, 3′-O-methyl-(−)-epicatechin-7-sulfate]" categorylabel="Condition not met"
molecule=COc1cc([C@H]2Oc3cc(O)cc(O[C@@H]4O[C@H](C(=O)O)[C@@H](O)[C@H](O)[C@H]4O)c3C[C@H]2O)ccc1O categorylabel="Condition met"
molecule="COc1cc([C@H]2Oc3cc(O)cc(O)c3C[C@H]2O)ccc1OS(=O)(=O)O [3′-O-Methyl-(−)-epicatechin-4′-sulfate]" categorylabel="Condition not met"
molecule="COc1ccc([C@H]2Oc3cc(O)cc(OS(=O)(=O)O)c3C[C@H]2O)cc1O [4′-O-Methyl-(−)-epicatechin-5-sulfate]" categorylabel="Condition not met"

====

Assay: Metabolite profiling and pharmacokinetics in plasma (targeted HPLC-MS2)
Assay type: in vivo, humans
Settings: human plasma, oral 60 mg 14C-EC, mean ± SEM n=8
Quick reference for AUC0-24h among some molecules
metricName: AUC0-24h (µM·h)

molecule="O=C(O)[C@H]1O[C@@H](Oc2cc(O)c3c(c2)O[C@H](c2ccc(O)c(O)c2)[C@H](O)C3)[C@H](O)[C@@H](O)[C@@H]1O [(−)-Epicatechin-7-O-glucuronide, (−)-epicatechin-7-O-β-D-glucuronide]" experimentalresult=0.045
molecule="COc1ccc([C@H]2Oc3cc(OS(=O)(=O)O)cc(O)c3C[C@H]2O)cc1O [4′-O-Methyl-(−)-epicatechin-7-sulfate]" experimentalresult=0.166
molecule="O=S(=O)(O)Oc1cc(O)c2c(c1)O[C@H](c1ccc(O)c(O)c1)[C@H](O)C2 [(−)-Epicatechin-7-sulfate]" experimentalresult=0.043
molecule="O=C(O)CCC(O)Cc1ccc(O[C@@H]2O[C@H](C(=O)O)[C@@H](O)[C@H](O)[C@H]2O)c(O)c1 (stereo partly shown)" experimentalresult=0.835

====

Assay: Metabolite profiling and quantification in urine (HPLC-MS2 with on-line radioactivity detector)
Assay type: in vivo, humans
Details: human, oral 207 μmol 14C-EC, mean ± SEM n=8
Label key: label 1 means Metabolite present in urine, collection period 0–48 h under 2 μ mol; label 0 means Metabolite present in urine, collection period 0–48 h of 2 μ mol or more.

compound="COc1cc([C@H]2Oc3cc(OS(=O)(=O)O)cc(O)c3C[C@H]2O)ccc1O [3′-O-Methyl-(−)-epicatechin-7-sulfate, 3′-O-methyl-(−)-epicatechin-7-sulfate]" categorylabel="label 1"
compound="O=C1CCC(Cc2ccc(O)c(OS(=O)(=O)O)c2)O1 (stereo not shown)" categorylabel="label 0"
compound="COc1cc([C@H]2Oc3cc(O)cc(O)c3C[C@H]2O)ccc1OS(=O)(=O)O [3′-O-Methyl-(−)-epicatechin-4′-sulfate]" categorylabel="label 1"
compound="O=S(=O)(O)Oc1cc([C@H]2Oc3cc(O)cc(O)c3C[C@H]2O)ccc1O [(−)-Epicatechin-3′-sulfate, (−)-epicatechin-3′-sulfate]" categorylabel="label 0"
compound="COc1ccc([C@H]2Oc3cc(O)cc(OS(=O)(=O)O)c3C[C@H]2O)cc1O [4′-O-Methyl-(−)-epicatechin-5-sulfate]" categorylabel="label 1"
compound="O=C(O)CCC(O)Cc1ccc(O[C@@H]2O[C@H](C(=O)O)[C@@H](O)[C@H](O)[C@H]2O)c(O)c1 (stereo partly shown)" categorylabel="label 0"
compound="O=S(=O)(O)Oc1cc(O)cc2c1C[C@@H](O)[C@@H](c1ccc(O)c(O)c1)O2 [(−)-Epicatechin-5-sulfate]" categorylabel="label 1"

The measurements presented in this section are drawn from paper PMC4929566.
